Please respond with reported AC50 for every item in the list.
TARGET: Vasopressin V1a receptor (Homo sapiens); also: assay procedure not described here
Sequence (P37288 whole entry): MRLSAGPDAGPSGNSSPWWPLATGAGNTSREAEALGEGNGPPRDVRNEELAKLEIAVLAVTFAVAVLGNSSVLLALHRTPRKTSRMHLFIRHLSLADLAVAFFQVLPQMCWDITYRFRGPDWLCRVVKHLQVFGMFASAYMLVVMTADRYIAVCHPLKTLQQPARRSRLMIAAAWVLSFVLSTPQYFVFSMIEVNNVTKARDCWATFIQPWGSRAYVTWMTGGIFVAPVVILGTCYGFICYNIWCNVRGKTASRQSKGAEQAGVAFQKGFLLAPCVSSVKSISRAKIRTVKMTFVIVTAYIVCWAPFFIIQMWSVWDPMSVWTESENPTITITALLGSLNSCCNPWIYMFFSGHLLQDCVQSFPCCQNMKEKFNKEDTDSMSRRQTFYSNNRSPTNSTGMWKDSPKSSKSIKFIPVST

See these solved cases before continuing.
- COMPOUND: "CN(C)CCC[C@@]1(c2ccc(F)cc2)OCc2cc(C#N)ccc21"
  AC50: "> 30 µM"
- COMPOUND: "C[N@+]1(CCF)[C@@H]2CC[C@H]1C[C@@H](OC(=O)C(O)(c1ccccc1)c1ccccc1)C2"
  AC50: "> 30 µM"
- COMPOUND: "CN1CCC(=C2c3ccccc3CCc3cccnc32)CC1"
  AC50: "> 30 µM"
- COMPOUND: "C[C@@H](Oc1cc(-c2cnn(C3CCNCC3)c2)cnc1N)c1c(Cl)ccc(F)c1Cl"
  AC50: "> 30 µM"
- COMPOUND: "CCC(=O)O[C@]1(C(=O)SCF)[C@H](C)C[C@H]2[C@@H]3C[C@H](F)C4=CC(=O)C=C[C@]4(C)[C@@]3(F)[C@@H](O)C[C@@]21C [FLUTICASONE PROPIONATE]"
  AC50: "> 30 µM"
- COMPOUND: "COc1ccccc1OCCNCC(O)COc1cccc2[nH]c3ccccc3c12 (stereo unspecified)"
  AC50: "> 30 µM"
- COMPOUND: "O=C(O)c1cn(C2CC2)c2cc(N3CCNCC3)c(F)cc2c1=O"
  AC50: "> 10 µM"
- COMPOUND: "COc1ccc(CC2c3cc(OC)c(OC)cc3CC[N+]2(C)CCC(=O)OCCCCCOC(=O)CC[N+]2(C)CCc3cc(OC)c(OC)cc3C2Cc2ccc(OC)c(OC)c2)cc1OC (stereo unspecified)"
  AC50: "> 30 µM"

Give AC50 for all compounds that follow.
1. O=C1C(CC[S+]([O-])c2ccccc2)C(=O)N(c2ccccc2)N1c1ccccc1 (stereo unspecified)
2. CC1(C)S[C@@H]2[C@H](NC(=O)[C@H](N)c3ccccc3)C(=O)N2[C@H]1C(=O)OCOC(=O)[C@@H]1N2C(=O)C[C@H]2S(=O)(=O)C1(C)C
3. CC(=O)[C@]1(O)Cc2c(O)c3c(c(O)c2[C@@H](O[C@H]2C[C@H](N)[C@H](O)[C@H](C)O2)C1)C(=O)c1ccccc1C3=O
4. CC(C)Cc1ccc(C(C)C(=O)O)cc1 (stereo unspecified)

> 10 µM
> 30 µM
> 30 µM
> 30 µM

* * *

TARGET: Thromboxane A2 receptor (Homo sapiens, UniProt P21731); also: assay procedure not described here
Sequence (P21731 whole entry): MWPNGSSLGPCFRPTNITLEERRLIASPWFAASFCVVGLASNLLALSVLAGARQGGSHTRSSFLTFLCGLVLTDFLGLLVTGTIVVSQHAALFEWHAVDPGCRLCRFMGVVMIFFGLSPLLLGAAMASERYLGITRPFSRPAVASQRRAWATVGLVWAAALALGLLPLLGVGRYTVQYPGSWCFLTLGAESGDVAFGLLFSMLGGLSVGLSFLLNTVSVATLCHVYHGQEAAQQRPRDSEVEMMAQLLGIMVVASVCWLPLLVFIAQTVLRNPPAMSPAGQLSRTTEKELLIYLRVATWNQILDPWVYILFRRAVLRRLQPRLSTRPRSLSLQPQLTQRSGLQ
Type: functional, cell-based
ASSAY_METRIC: AC50

// known answers, use as guide
- COMPOUND: "CC(=O)O[C@]1(C(C)=O)CC[C@H]2[C@@H]3C=C(C)C4=CC(=O)CC[C@@H]4[C@H]3CC[C@@]21C [NOMEGESTROL ACETATE]"
  RESULT: "> 10 µM"
- COMPOUND: "CC1=C(/C=C/C(C)=C/C=C/C(C)=C/C(=O)O)C(C)(C)CCC1"
  RESULT: "14.3 µM"
- COMPOUND: "Cc1onc(-c2ccccc2)c1-c1ccc(S(N)(=O)=O)cc1"
  RESULT: "> 30 µM"
- COMPOUND: "C#C[C@]1(O)CC[C@H]2[C@@H]3CCC4=CC(=O)CC[C@@H]4[C@H]3C(=C)C[C@@]21CC"
  RESULT: "> 30 µM"
- COMPOUND: "CC(C(=O)O)c1ccc(-c2ccccc2)c(F)c1 (centres undefined)"
  RESULT: "> 30 µM"
- COMPOUND: "CN1C(C(=O)Nc2ccccn2)=C(O)c2ccccc2S1(=O)=O"
  RESULT: "> 30 µM"

Report AC50 for each item below.
1. Cc1c(N(C)CS(=O)(=O)O)c(=O)n(-c2ccccc2)n1C
2. CNC(=O)Oc1cccc2ccccc12
3. CN1C(=O)/C(=N\NC(N)=S)c2ccccc21

> 30 µM
> 30 µM
> 10 µM

* * *

Observed AC50, system Neuronal acetylcholine receptor subunit alpha-4 (Homo sapiens, UniProt P43681). Also: assay procedure not described here.

Below, each entry is followed by its recorded AC50 result.
- MOLECULE: "CSCC[C@H](NC(=O)[C@H](Cc1c[nH]c2ccccc12)NC(=O)CCNC(=O)OC(C)(C)C)C(=O)N[C@@H](CC(=O)O)C(=O)N[C@@H](Cc1ccccc1)C(N)=O"
  TARGET: "Neuronal acetylcholine receptor subunit alpha-4 (Homo sapiens, UniProt P43681)"
  AC50: "> 10 µM"
- MOLECULE: "CC(C(=O)O)c1ccc(CC2CCCC2=O)cc1 (centres undefined)"
  TARGET: "Neuronal acetylcholine receptor subunit alpha-4 (Homo sapiens, UniProt P43681)"
  AC50: "> 30 µM"
- MOLECULE: "CC(=O)[C@]1(O)Cc2c(O)c3c(c(O)c2[C@@H](O[C@H]2C[C@H](N)[C@H](O)[C@H](C)O2)C1)C(=O)c1ccccc1C3=O"
  TARGET: "Neuronal acetylcholine receptor subunit alpha-4 (Homo sapiens, UniProt P43681)"
  AC50: "> 30 µM"

Hi there! I need AC50 for each item below, if you can.
1. CCC(COC(=O)c1cc(OC)c(OC)c(OC)c1)(c1ccccc1)N(C)C (centres undefined)
2. CC1=C(C)C(=O)C(C(CCCCCC(=O)O)c2ccccc2)=C(C)C1=O (centres undefined)
3. CCOC(=O)C1=C[C@]2(CC)CCCN3CCc4c(n1c1ccccc41)[C@@H]32
4. CCN1CCN(Cc2ccc(Nc3ncc(F)c(-c4cc(F)c5nc(C)n(C(C)C)c5c4)n3)nc2)CC1
5. Cc1ncc2n1-c1ccc(Cl)cc1C(c1ccccc1F)=NC2
6. CC(C)Cc1ccc(C(C)C(=O)O)cc1 (centres undefined)
7. Cn1c(=O)cc(N2CCC[C@@H](N)C2)n(Cc2ccccc2C#N)c1=O

["15 µM", "> 30 µM", "> 30 µM", "> 30 µM", "> 10 µM", "> 10 µM", "> 10 µM"]

Batch: AC50 for all items listed.
1. CCCCCC(=O)O[C@]1(C(C)=O)CC[C@H]2[C@@H]3CCC4=CC(=O)CC[C@]4(C)[C@H]3CC[C@@]21C [HYDROXYPROGESTERONE CAPROATE]
2. Clc1ccc(C(Cn2ccnc2)OCc2ccsc2Cl)c(Cl)c1 (centres undefined)
3. Nc1ccc(S(=O)(=O)Nc2nccs2)cc1
4. Oc1ccc2c(c1)[C@@]13CCCC[C@@]1(O)[C@@H](C2)N(CC1CCC1)CC3
5. O=C1CN=C(c2ccccc2)c2cc([N+](=O)[O-])ccc2N1
6. [H]/N=C(/N)N/C(=N/[H])NCCc1ccccc1

> 30 µM
> 30 µM
> 10 µM
> 30 µM
> 10 µM
> 10 µM

Go through the items and report each one's AC50.
1. C[C@]12CC[C@@H]3c4ccc(O)cc4C[C@@H](CCCCCCCCC[S+]([O-])CCCC(F)(F)C(F)(F)F)[C@H]3[C@@H]1CC[C@@H]2O (some centres undefined)
2. NC1CCN(c2nc3c(cc2F)c(=O)c(C(=O)O)cn3-c2ccc(F)cc2F)C1 (centres undefined)
3. CNC1=Nc2ccc(Cl)cc2C(c2ccccc2)=[N+]([O-])C1 [CHLORDIAZEPOXIDE]
4. COc1ccc(CC2c3cc(OC)c(OC)cc3CC[N+]2(C)CCC(=O)OCCCCCOC(=O)CC[N+]2(C)CCc3cc(OC)c(OC)cc3C2Cc2ccc(OC)c(OC)c2)cc1OC (centres undefined)
5. CCN(CC)CCNC(=O)c1c(C)[nH]c(/C=C2\C(=O)Nc3ccc(F)cc32)c1C
6. Cc1cccc(N2CC(CO)OC2=O)c1 (centres undefined)
7. CN(C)CCC[C@@]1(c2ccc(F)cc2)OCc2cc(C#N)ccc21
8. CC(N)C12CC3CC(CC(C3)C1)C2 (centres undefined)

> 30 µM
> 30 µM
> 10 µM
3.63 µM
7.3 µM
> 30 µM
> 30 µM
> 10 µM

* * *

What AC50 was measured for each of the following?
TARGET: UniProt P06401
Sequence (P06401 whole entry): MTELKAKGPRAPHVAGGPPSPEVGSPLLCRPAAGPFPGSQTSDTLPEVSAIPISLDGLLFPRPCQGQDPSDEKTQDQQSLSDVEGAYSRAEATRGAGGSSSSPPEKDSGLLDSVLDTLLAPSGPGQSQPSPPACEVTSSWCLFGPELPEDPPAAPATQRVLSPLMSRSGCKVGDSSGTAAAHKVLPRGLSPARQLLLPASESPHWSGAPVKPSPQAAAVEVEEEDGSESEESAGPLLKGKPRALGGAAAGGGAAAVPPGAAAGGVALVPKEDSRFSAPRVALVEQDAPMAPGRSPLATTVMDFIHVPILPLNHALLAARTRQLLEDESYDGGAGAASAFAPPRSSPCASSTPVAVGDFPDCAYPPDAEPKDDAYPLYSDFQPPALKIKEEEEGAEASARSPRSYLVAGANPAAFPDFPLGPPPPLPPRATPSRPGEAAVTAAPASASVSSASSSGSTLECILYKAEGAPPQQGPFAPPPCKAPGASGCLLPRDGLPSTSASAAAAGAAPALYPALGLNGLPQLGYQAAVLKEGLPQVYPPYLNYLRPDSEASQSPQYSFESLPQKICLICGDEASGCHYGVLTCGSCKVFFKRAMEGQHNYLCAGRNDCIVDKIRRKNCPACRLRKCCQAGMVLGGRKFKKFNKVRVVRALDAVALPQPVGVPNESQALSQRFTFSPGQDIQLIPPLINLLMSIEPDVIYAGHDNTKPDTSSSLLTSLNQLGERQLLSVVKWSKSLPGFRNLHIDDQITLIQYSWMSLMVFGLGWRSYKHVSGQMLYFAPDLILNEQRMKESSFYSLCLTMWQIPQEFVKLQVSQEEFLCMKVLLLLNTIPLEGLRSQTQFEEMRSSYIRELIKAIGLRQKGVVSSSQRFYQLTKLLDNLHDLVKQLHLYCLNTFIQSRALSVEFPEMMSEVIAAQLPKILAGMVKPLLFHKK

- MOLECULE: "CC(C)C[C@H](NC(=O)CNC(=O)c1cc(Cl)ccc1Cl)B(O)O"
  ASSAY_METRIC: "AC50"
  RESULT: "> 30 µM"

I would be grateful if you could provide AC50 for each of the following entries.
1. CN(C)[C@@H]1C(O)=C(C(N)=O)C(=O)[C@@]2(O)C(O)=C3C(=O)c4c(O)ccc(Cl)c4[C@@](C)(O)[C@H]3C[C@@H]12
2. CC(=O)O[C@]1(C(C)=O)CC[C@H]2[C@@H]3C=C(C)C4=CC(=O)CC[C@@H]4[C@H]3CC[C@@]21C [NOMEGESTROL ACETATE]

1. > 30 µM
2. 0.003 µM

Respectfully, I request AC50 for each entry included below.
1. CC(=O)O[C@]1(C(C)=O)CC[C@H]2[C@@H]3C=C(Cl)C4=CC(=O)CC[C@]4(C)[C@H]3CC[C@@]21C [CHLORMADINONE ACETATE]
2. FC(F)(F)c1ccc(CNc2ccc(Cc3c[nH]c4ncc(Cl)cc34)cn2)cn1
3. CC[C@@H]([C@H](C)O)n1ncn(-c2ccc(N3CCN(c4ccc(OC[C@@H]5CO[C@@](Cn6cncn6)(c6ccc(F)cc6F)C5)cc4)CC3)cc2)c1=O
4. CCCc1nc(C(C)(C)O)c(C(=O)O)n1Cc1ccc(-c2ccccc2-c2nnn[nH]2)cc1

["0.003 µM", "9.95 µM", "> 30 µM", "> 30 µM"]

Hi, could you look up AC50 for each item in my list?
1. Cc1onc(-c2ccccc2)c1-c1ccc(S(N)(=O)=O)cc1
2. C[C@]1(Cn2ccnn2)[C@H](C(=O)O)N2C(=O)C[C@H]2S1(=O)=O
3. [H]/N=C(\N/C(=N/[H])Nc1ccc(Cl)cc1)NC(C)C
4. Cc1onc(-c2ccccc2)c1C(=O)N[C@@H]1C(=O)N2[C@@H]1SC(C)(C)[C@@H]2C(=O)O
5. Cc1cc(NC(=O)C2=C(O)c3ccccc3S(=O)(=O)N2C)no1

> 30 µM
> 30 µM
> 30 µM
> 30 µM
> 30 µM

Reference for the values: ChEMBL document CHEMBL5291721
